system: K4 kissing-loop RNA reporter; assay: apparent KD of K4 kissing-loop reporter; higher = weaker reporter binding; details: Eterna round: R107; input ligand: tryptophan 2.4 mM
reported.metric: apparent KD of K4 kissing-loop reporter (nM)

INSERT INTO results (residue_codes, quantitative_readout) VALUES
  ('GAGCGGUGGAGGUUACCGCUAUUCUGAGAAGGAGCGCAGAAGACUGCAGGUAGGUCGCUUAGAGCUUGCAGUGAUGUUGCAAGUU [KL-SSArg-A13]', 127),
  ('CGGAGUGAUGUUCCGUUAAUUCCUUAGUUACGAGGACCGGUACGGCCGCCACUCGAUUUUAGUUUUAUUUAUUGUUUGGAAAUUU [JR_SSTryptoA_Sub008]', 113),
  ('CGUAGCAGACGAAGGAGCGGCUACCUGAAUCAGGGUGAUGCCUGAGUGAUGUUCAGGUAAAGCCAGGUAGGUCGCGUCUGCUACG [Arg B Ex t9a]', 210),
  ('AACAUUUUCAGAAGGAGCGUGAAUUAUUCAUAAUUAUAUUAUACGAGUGAUGUUCGUAUUUCACAGGUAGGUCGCUGAUAUAUUA [JR_SSArginiB_Sub001]', 107),
  ('AACGUUUUGAGAAGGAGCGCGUUAAGCAGUGAUGUUGCUGUAUUUUAUCCAAUUCAUAUAUCGCAGGUAGGUCGCUCAAUACGUA [JR_Nu_SSArginiB_Sub027]', 432),
  ('AGUACAAUGGCGGCCGCCACUCAAUGGCAGAUCAAAGAUCUGUAUCACUCAGUGAUGUUGAGUGAGAGGACCGGGCCUUUGUACA [Omei KL Tryp B SS B v9]', 187);

====

tested on: K4 kissing-loop RNA reporter; experiment: apparent KD of K4 kissing-loop reporter; higher = weaker reporter binding; conditions: Eterna round: R107; input ligand: tryptophan 2.4 mM;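 also: bound reporter read as fluorescence of individual clusters on recovered sequencing chips by microscopy, with normalized cluster intensities fitted with a binding model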
reported.metric: apparent KD of K4 kissing-loop reporter

INSERT INTO assay_data (residue_codes, result) VALUES
  ('AUUAAUUUCAGAGGAUAUGCUUAAUUGAUUUAUUAUUAUCUAUUAUGCAGUGAUGUUGCAUAUUUUGCAGAAGGCUGAUUUAUAA [JR_SSFMNB_Sub018]', '0.125 µM'),
  ('UGAUACCAGACGGCCGCCACUUCUGCAAGUCAAAGACUUGCUAAGGGAAUCGUCCAGUGAUGUUGGAGGACCGGGUCUGGUAUCU [FiskerMod 2 - Jieux - Exclusion - Tryptophan B]', '1.05 µM'),
  ('GCCGUAGAUCGAAGGAGCGUGCAAGAAUCGUAGUGAUGUUACGGAGAGUGUCACGCCGUCGCACAGGUAGGUCGCGAUCUACGGC', '0.0668 µM'),
  ('AUAACAAUCUGAAGGAGCGAGAAAGCAGUGAUGUUGCAAAGGCGAGUGAUGUUCGCAAUAACUCAGGUAGGUCGCAGAAACAAGA [Same State Arginine B]', '0.119 µM'),
  ('UUCGGAUAAGUCCUUCCGAAGAAGCCGGAAGGAGCGACUCAAUAGUCAGGUAGGUCGCCGGCAAGCGUAGUGAUGUUAUGCUCAC [Arg A SS t6]', '0.74 µM'),
  ('CGACACUCAGCGGCCGCCACUGAGCUAUAUUUUGCAGGUGCCCGAGUAAGUGAUGUUUACUUCGUCAGGACCGGGCUGGUUUCAA [theeternabot_sameState_KL_Trp_B_20]', '0.351 µM');
